Source of measurements: ChEMBL document CHEMBL5291721

As an illustration, consider measured AC50 for compounds on UniProt:P35367.
Sequence (P35367 whole entry): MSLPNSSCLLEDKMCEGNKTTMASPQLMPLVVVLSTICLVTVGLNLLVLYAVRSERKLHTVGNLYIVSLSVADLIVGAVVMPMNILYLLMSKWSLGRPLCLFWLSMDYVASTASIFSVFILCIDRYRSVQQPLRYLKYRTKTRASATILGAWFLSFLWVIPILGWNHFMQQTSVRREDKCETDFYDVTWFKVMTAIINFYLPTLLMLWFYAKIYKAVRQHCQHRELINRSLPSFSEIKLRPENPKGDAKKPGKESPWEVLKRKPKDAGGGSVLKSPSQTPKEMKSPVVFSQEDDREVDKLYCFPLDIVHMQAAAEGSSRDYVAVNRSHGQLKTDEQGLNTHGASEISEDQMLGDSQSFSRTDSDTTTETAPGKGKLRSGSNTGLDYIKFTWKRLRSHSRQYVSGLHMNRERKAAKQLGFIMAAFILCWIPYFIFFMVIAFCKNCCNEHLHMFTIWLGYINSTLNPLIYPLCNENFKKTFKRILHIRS

In the examples that follow, each entry is paired with its recorded AC50.
Input line: May I ask what AC50 has been recorded for CCOc1cc2ncc(C#N)c(Nc3ccc(OCc4ccccn4)c(Cl)c3)c2cc1NC(=O)/C=C/CN(C)C ?
Output line: > 10 µM

Input line: Also COc1cc2c(cc1OC)C1CC(=O)C(CC(C)C)CN1CC2 (stereo not given) , if possible.
Output line: > 30 µM

Input line: Also CCN(CC)CCn1c(=O)c(Cc2ccc(OC)cc2)nc2ccccc21 , if possible.
Output line: 25 µM

Input line: Also c1cnc2cc3c(cc2n1)[C@@H]1CNC[C@H]3C1 , if possible.
Output line: > 30 µM

Now for the compound whose AC50 we want.
Input line: May I ask what AC50 has been recorded for CC(C)(Oc1ccc(Cl)cc1)C(=O)OCCOC(=O)c1cccnc1 [ETOFIBRATE] ?
Output line: > 30 µM

---

As an illustration, consider measured AC50 for compounds on UniProt:P21554.
Sequence (P21554 whole entry): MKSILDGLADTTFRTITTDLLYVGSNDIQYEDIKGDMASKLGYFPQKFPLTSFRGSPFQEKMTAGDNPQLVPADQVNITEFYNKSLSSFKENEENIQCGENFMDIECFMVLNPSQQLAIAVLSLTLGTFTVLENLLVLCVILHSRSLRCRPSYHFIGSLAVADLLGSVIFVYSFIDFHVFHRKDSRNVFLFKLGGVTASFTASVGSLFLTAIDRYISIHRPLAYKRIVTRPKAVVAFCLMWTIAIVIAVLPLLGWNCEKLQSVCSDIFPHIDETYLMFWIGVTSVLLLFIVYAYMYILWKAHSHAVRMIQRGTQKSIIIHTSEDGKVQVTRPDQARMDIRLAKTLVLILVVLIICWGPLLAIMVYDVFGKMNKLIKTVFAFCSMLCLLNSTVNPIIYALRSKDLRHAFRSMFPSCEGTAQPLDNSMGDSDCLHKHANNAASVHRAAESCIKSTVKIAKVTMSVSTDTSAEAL

In the examples that follow, each entry is paired with its recorded AC50.
Input line: May I ask what AC50 has been recorded for Nc1ccc(S(=O)(=O)Nc2ncccn2)cc1 ?
Output line: > 10 µM

Input line: Also CC(=O)N1CCN(c2ccc(OCC3COC(Cn4ccnc4)(c4ccc(Cl)cc4Cl)O3)cc2)CC1 (stereo not given) , if possible.
Output line: > 10 µM

Input line: Also CN(C)CCN(Cc1ccccc1)c1ccccn1 , if possible.
Output line: > 10 µM

Input line: Also C[C@@H](Cc1ccccc1)N(C)Cc1ccccc1 , if possible.
Output line: > 10 µM

Input line: Also C[C@]12CCC(=O)C=C1[C@@H]1C[C@@H]1[C@H]1[C@@H]3[C@@H]4C[C@@H]4[C@@]4(CCC(=O)O4)[C@@]3(C)CC[C@@H]12 , if possible.
Output line: > 30 µM

Input line: Also COc1cccc2c1C(=O)c1c(O)c3c(c(O)c1C2=O)C[C@@](O)(C(=O)CO)C[C@@H]3O[C@H]1C[C@H](N)[C@H](O)[C@H](C)O1 , if possible.
Output line: > 10 µM

Input line: Also CNC1(C)C2CCC(C2)C1(C)C (stereo not given) , if possible.
Output line: > 10 µM

Input line: Also Cc1cnc(Nc2ccc(OCCN3CCCC3)cc2)nc1Nc1cccc(S(=O)(=O)NC(C)(C)C)c1 , if possible.
Output line: > 10 µM

***
Input line: May I ask what AC50 has been recorded for CCC(NC(C)C)C(O)c1ccc(O)c(O)c1 (stereo not given) ?
Output line: > 30 µM

Input line: Also CN1C(=O)CN=C(c2ccccc2F)c2cc([N+](=O)[O-])ccc21 , if possible.
Output line: > 10 µM

Input line: Also Nc1cc(N2CCCCC2)nc(N)[n+]1[O-] , if possible.
Output line: > 10 µM

Input line: Also CCN(CCO)CCCC(C)Nc1ccnc2cc(Cl)ccc12 (stereo not given) [HYDROXYCHLOROQUINE] , if possible.
Output line: > 10 µM

Input line: Also CCOC(=O)C1=C(C)NC(C)=C(C(=O)OC)C1c1cccc(Cl)c1Cl (stereo not given) , if possible.
Output line: 13.4 µM

Input line: Also CC(C)C[C@H](NC(=O)[C@H](Cc1ccccc1)NC(=O)c1cnccn1)B(O)O , if possible.
Output line: > 30 µM
